Examples of compounds with documented growth inhibition follow.
Experiment: NCI Yeast Anticancer Drug Screen. Data for the bub3 strain (AID 167)
Settings: S. cerevisiae bub3 mutant strain, active compounds read high; at 50.0 µM unless noted
The panel holds about 79,000 compounds, 15% with a hit somewhere; the sample as a whole holds those more often.
Reported metric: growth inhibition (%)

O=C(CCc1ccccc1)On1nnc2ccccc2c1=O
-14.6
COC1=Nc2ccccc2N2CCN=C12
-8.75
CC1=Nc2ccccc2SC2(C1)C(C1COC(C)(C)O1)OC1OC(C)(C)OC12 (centres undefined)
-9.55
O=S(=O)(O)c1cc(N=[N+]([O-])c2ccc(N=Nc3ccccc3)cc2S(=O)(=O)O)ccc1/C=C/c1ccc(N=[N+]([O-])c2ccc(N=Nc3ccccc3)cc2S(=O)(=O)O)cc1S(=O)(=O)O
0.8
Cc1cc[n+]2cc(-c3ccc(/C=N/N=C(N)N)cc3)n(C)c2c1
-8.75
CCOC(=O)C1=C(c2ccccc2)OC(N)=C(C#N)C1c1ccccc1Cl (centres undefined)
39.9
COc1cc(CC(=O)C(=O)O)ccc1O
2.2
O=C(O)CCc1cnc[nH]1
14.6
CN(C)CC=C(c1ccccc1)c1ccccc1
-8.85
CCCC(=O)N(C(C)C)C(C)C
8.5
COc1ccc(C2S/C(=C\c3ccc([N+](=O)[O-])cc3)C(=O)N2NC(=O)Cc2ccccc2)cc1 (centres undefined)
11.4
CC(=O)N1C(=O)c2cccc([N+](=O)[O-])c2C1=O
-21.7
COCCCC(=O)CNC(C)C
-21.1
Cn1cnc2ncnc(Cl)c21
-52.1
CCOC(=O)c1cnc(NN)[nH]c1=O
-13.8
Cc1ccc(S(=O)(=O)Oc2ccc3oc4cccc(NCCN(C)C)c4c(=O)c3c2)cc1
-6.4
NCCSS(=O)(=O)O
0.45
COC1OC(C)C(OC(=O)c2ccccc2)C(OC(=O)c2ccccc2)C1OC(=O)c1ccccc1 (centres undefined)
1.95
O=c1[nH]cc(Br)c(=O)[nH]1
21.9
O=Cc1ccccc1OCCOc1ccccc1C=O
9.4
CC(C)N1C(=O)NC2C1NC(=O)N2C(C)C (centres undefined) (tested in a mixture with another compound)
-12.8
CC(O)(c1ccccc1)c1ccccc1
-2.3
CC(C(=O)O)N1C(=O)CNC1=O (centres undefined)
1.25
CC(=O)OC1CCC(=O)C2C(C(=O)O)CCCC12 (centres undefined)
-1.75
